Study target: T1, CD32B (FcγRII-B) (UniProt P31994 43-217, limits assumed)
T1 sequence (looked up): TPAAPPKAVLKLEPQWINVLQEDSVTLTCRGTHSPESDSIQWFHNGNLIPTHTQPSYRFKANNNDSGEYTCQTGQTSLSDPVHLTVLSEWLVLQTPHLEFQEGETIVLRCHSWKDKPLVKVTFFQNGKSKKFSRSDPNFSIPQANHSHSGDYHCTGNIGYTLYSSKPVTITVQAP
Test: SPR (BIAcore), koff compared with wild-type Fc
Assay readout: WT koff/mutant koff (ratio)
Give the number; ratio is assumed, so skip it.

Please review the entries below; each comes with its answer.
Fc mutant 16: F243L R292P Y300L P396L (other, UniProt P01857-1 104-330, looked up, domain: Fc) DKTHTCPPCPAPELLGGPSVFLLPPKPKDTLMISRTPEVTCVVVDVSHEDPEVKFNWYVDGVEVHNAKTKPPEEQYNSTLRVVSVLTVLHQDWLNGKEYKCKVSNKALPAPIEKTISKAKGQPREPQVYTLPPSRDELTKNQVSLTCLVKGFYPSDIAVEWESNGQPENNYKTTPLVLDSDGSFFLYSKLTVDKSRWQQGNVFSCSVMHEALHNHYTQKSLSLSPGK	1.1
Fc mutant 18: F243L R292P Y300L V305I P396L (other, UniProt P01857-1 104-330, looked up, domain: Fc; Same substitutions as the Fc of ch4D5-FcMT1) DKTHTCPPCPAPELLGGPSVFLLPPKPKDTLMISRTPEVTCVVVDVSHEDPEVKFNWYVDGVEVHNAKTKPPEEQYNSTLRVVSILTVLHQDWLNGKEYKCKVSNKALPAPIEKTISKAKGQPREPQVYTLPPSRDELTKNQVSLTCLVKGFYPSDIAVEWESNGQPENNYKTTPLVLDSDGSFFLYSKLTVDKSRWQQGNVFSCSVMHEALHNHYTQKSLSLSPGK	1.4
Fc mutant 14: F243L R292P P396L (other, UniProt P01857-1 104-330, looked up, domain: Fc) DKTHTCPPCPAPELLGGPSVFLLPPKPKDTLMISRTPEVTCVVVDVSHEDPEVKFNWYVDGVEVHNAKTKPPEEQYNSTYRVVSVLTVLHQDWLNGKEYKCKVSNKALPAPIEKTISKAKGQPREPQVYTLPPSRDELTKNQVSLTCLVKGFYPSDIAVEWESNGQPENNYKTTPLVLDSDGSFFLYSKLTVDKSRWQQGNVFSCSVMHEALHNHYTQKSLSLSPGK	0.4

// next entry
Q: Answer with reported WT koff/mutant koff of Fc mutant 17: F243L R292P V305I P396L (other, UniProt P01857-1 104-330, looked up, domain: Fc) DKTHTCPPCPAPELLGGPSVFLLPPKPKDTLMISRTPEVTCVVVDVSHEDPEVKFNWYVDGVEVHNAKTKPPEEQYNSTYRVVSILTVLHQDWLNGKEYKCKVSNKALPAPIEKTISKAKGQPREPQVYTLPPSRDELTKNQVSLTCLVKGFYPSDIAVEWESNGQPENNYKTTPLVLDSDGSFFLYSKLTVDKSRWQQGNVFSCSVMHEALHNHYTQKSLSLSPGK
Result: 0.4
